# Target desc: T1, PUF4 RNA-binding domain (Saccharomyces cerevisiae, UniProt P25339 537-888)
# T1 sequence: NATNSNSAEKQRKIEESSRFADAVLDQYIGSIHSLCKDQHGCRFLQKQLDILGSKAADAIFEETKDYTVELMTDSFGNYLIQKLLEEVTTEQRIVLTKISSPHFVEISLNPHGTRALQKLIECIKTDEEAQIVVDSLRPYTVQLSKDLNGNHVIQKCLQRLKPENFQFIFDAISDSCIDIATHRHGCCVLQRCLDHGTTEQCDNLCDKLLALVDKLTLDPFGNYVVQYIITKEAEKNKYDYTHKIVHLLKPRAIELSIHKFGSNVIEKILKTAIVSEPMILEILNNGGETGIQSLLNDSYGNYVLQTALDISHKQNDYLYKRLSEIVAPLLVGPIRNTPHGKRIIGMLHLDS
# Assay comment: Mg; RNA-MaP; 20 mM Na-HEPES pH 7.4, 30 mM KOAc, 0.75 mM MgCl2, 0.1% Tween-20, 5% glycerol, 0.1 mg/mL BSA, 2 mM DTT; 25 C; 0.0125-409.6 nM protein
# Recorded conditions: tags: N-His6-TEV cleaved; C-SNAP kept, Cy3B-labelled; label: tethered on chip by stalled RNA polymerase
pKd: −log10 of the molar value.
true (1) means recorded pKd is 7 or above; false (0) means it is below 7.

Solved cases below.
# Binder, Discrete label
rows = [
    ("UCUCUUUGUACGGUUUCUCUU (ssRNA) [Ic_S1_P4E.1_K4.1_C4.1_H4.1_A4.1_[T5C]_[A6G]_[T7G]_F4.1_[A9T]_T4.1]", "false (0)"),
    ("UCUCUUCUUCCUGUAUAUAUAUCUCUU (ssRNA) [Ie_S1_P3E.2_K3.1_C3.2_H3.1_[+1CCT]_A3.1_F3.1_T3.2]", "true (1)"),
    ("Ib_S2_P4E.1_K4.1_C4.1_H4.1_A4.1_[T5C]_[T7C]_F4.1_T4.1 (ssRNA) RNA: UUUGAUUAAUAUGAUAUCGUUCUUUCUUGUACACUAUUCUUUCUCGAUAUCAUAUUAAUCUUU", "true (1)"),
]

Exercise: // inclusive: pKd at least 7? input: ACAAACUCACACUUAUUACAACAAAC (ssRNA) [Id_ii_S3_P5E.4_K5.3_C5.2_[C-2T]_[T-1C]_H5.3_A5.1_F5.1_T5.2_[T11C]]
Key: false (0)

Exercise: // inclusive: pKd at least 7? input: Ib_S2_P5E.1_K5.1_C5.1_H5.1_A5.1_[A7C]_F5.1_[T8A]_T5.1 (ssRNA) RNA: UUUGAUUAAUAUGAUAUCGUUCUUUCUUGUAUUCAUAUUCUUUCUCGAUAUCAUAUUAAUCUUU
Key: true (1)

Exercise: // inclusive: pKd at least 7? input: Ib_S4_P4E.1_K4.1_C4.1_H4.1_[T3G]_[A4T]_A4.1_F4.1_T4.1 (ssRNA) RNA: UUUGACAACUGAUCGUUCUUUCUUGGUUAUUAUUCUUUCUCGAUCAGUUGUCUUU
Key: false (0)

Exercise: // inclusive: pKd at least 7? input: Ib_S2_P5E.1_K5.1_C5.1_H5.1_A5.1_[T5C]_F5.1_[A10T]_T5.1 (ssRNA) RNA: UUUGAUUAAUAUGAUAUCGUUCUUUCUUGUACUAUUUUUCUUUCUCGAUAUCAUAUUAAUCUUU
Key: true (1)

Exercise: // inclusive: pKd at least 7? input: Id_ii_S4_P4E.4_K4.3_C4.2_[C-2A]_[T-1C]_H4.3_A4.1_F4.1_T4.2_[G10C] (ssRNA) RNA: UUUGACAACUGAUCGUUCUUUCUACACACUAUUACUUUCUUUCUCGAUCAGUUGUCUUU
Key: false (0)

Exercise: // inclusive: pKd at least 7? input: Ic_S2_P4E.1_K4.1_C4.1_H4.1_A4.1_[A6C]_[T7C]_F4.1_[A9C]_T4.1 (ssRNA) RNA: UUUGAUUAAUAUGAUAUCGUUCUUUCUUGUAUCCUCUUCUUUCUCGAUAUCAUAUUAAUCUUU
Key: true (1)
